test description: Titration with NaOH for the experimental ionization profile in a hydroalcoholic base
Assay type: physicochemical
condition context: hydroalcoholic vehicle (ethanol 45%, propylene glycol 20%, water 25.58%), not gellified; read-out: apparent pKa from the experimental ionization profile
readout type: pKa

smiles_code=CCCN(CCC)CCc1cccc2c1CC(=O)N2 number=8
